Biological target: T1, Human RNF43 extracellular domain (amino acids 1-190) with a Flag tag on its C terminus (human, UniProt Q68DV7 24-190)
T1 construct: also called recombinant human RNF43; human RNF43 ECD
T1 sequence: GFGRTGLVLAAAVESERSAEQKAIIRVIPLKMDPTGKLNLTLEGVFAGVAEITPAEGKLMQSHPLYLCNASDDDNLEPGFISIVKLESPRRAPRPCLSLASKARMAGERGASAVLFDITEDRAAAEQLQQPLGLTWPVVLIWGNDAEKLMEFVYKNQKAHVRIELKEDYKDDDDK
Assay: SPR, Biacore T200, antibody captured by anti-human Fc, RNF43 as analyte, pH 7.4, 25 C
PARAMETER: koff (s⁻¹)
Form entry: value (s⁻¹) — number only.

// worked examples, koff included
{"BINDER": "RNN0276oo (antibody, human IgG1, kappa, N297A, V domains shown, Rabbit variable regions recombined with BS03aHis heavy-chain constant region and hk0MC light-chain constant region; also called anti-RNF43 monospecific antibody) VH: QSVEESGGRLVTPGTPLTLTCTVSGFSLSSYAMNWVRQAPGKGLEWIGVIGSSGRTYYASWAKGRFTSSKTSTTVVLKITSPTTEDTATYFCARGPYDSYGDGGVTGDLWGPGTLVTVSS VL: AQVLTQTPSPVSAAVGGTVTINCQSSQSVYNNNNLAWYQQKPGQPPKLLIYRASTLASGVPSRFKGSGSGTQFTLTISGVQCEDAATYYCQGGYDCSSADCDTFGGGTKVEIKR", "PARAMETER": "koff", "RECORDED_NUMBER": 0.0227}
{"BINDER": "RNN0275kk (antibody, human IgG1, kappa, N297A, V domains shown, Rabbit variable regions recombined with BS03aHis heavy-chain constant region and hk0MC light-chain constant region; also called anti-RNF43 monospecific antibody) VH: QSVEESGGRLVTPGTPLTLTCTVSGWTINSYHMCWVRQAPGEGLEWIATITTGGVTFYANWARGRFTISKTSTTVDLKMTSLTAADTATYFCVRGPDYTYFDLWGPGTLVTVSS VL: NVVLTQTPSSVSAAVGGTVTIKCQASQSISDTLAWYQQKPGQPPKLLIYYASDLASGVPSRFSGSGSGTEFTLTINDLECADAATYYCQSYVYSNGIDNTFGGGTKVEIKR", "PARAMETER": "koff", "RECORDED_NUMBER": 0.131}
{"BINDER": "RNN0191kk (antibody, human IgG1, kappa, N297A, V domains shown, Rabbit variable regions recombined with BS03aHis heavy-chain constant region and hk0MC light-chain constant region; also called anti-RNF43 monospecific antibody) VH: QSLEESGGRLVTPGGSLTLTCTASGFSLSSYAIGWVRQAPGKGLEYVGIIERNDKTAYASWAKGRFTISRTSTTVDLKMTSLTTEDTATYFCARGYLDNSPLWGPGTLVTVSS VL: AIEMTQTPASVSAAVGGTVTINCQSSQSVGDNIWLGWYQQKPGQPPKLLIRYASTLASGVPSRFKGSGSGTQFTLTISDLECDDAATYYCAGAYNGLIYSFGGGTKVEIKR", "PARAMETER": "koff", "RECORDED_NUMBER": 0.294}

Ask: Looking for the measured koff of RNN0198oo (antibody, human IgG1, kappa, N297A, V domains shown, Rabbit variable regions recombined with BS03aHis heavy-chain constant region and hk0MC light-chain constant region; also called anti-RNF43 monospecific antibody) VH: QEQLVESGGGLVQPEGSLTLTCKASGLDFSSSYWMCWVRQAPGKGLEWIGCIYTGSSGSTYYASWAKGRFTISKTSSTTVTLQMTSLTAADTATYFCARTGSRYWNYFELWGPGTLVTVSS VL: DVVMTQTPPSVSAAVGGTVTIKCQASQSIYRGLAWYQQKPGQPPNLLIYSASTLASGVPSRFSGSGSGTEYTLTISDLECADAATYYCQSYYYSSSNGWPFGGGTKVEIKR , can you help?
Result: 0.00291
